Data provenance is patent US20200377573A1.

Task for the reader: assign each of the following binders its reported IC50 (nM) for HTRA1 (full), decomposition rate of substrate peptide H2-Opt.
# test target: HTRA1 (full) (human, UniProt Q92743 23-480)
# Sequence (Q92743 23-480): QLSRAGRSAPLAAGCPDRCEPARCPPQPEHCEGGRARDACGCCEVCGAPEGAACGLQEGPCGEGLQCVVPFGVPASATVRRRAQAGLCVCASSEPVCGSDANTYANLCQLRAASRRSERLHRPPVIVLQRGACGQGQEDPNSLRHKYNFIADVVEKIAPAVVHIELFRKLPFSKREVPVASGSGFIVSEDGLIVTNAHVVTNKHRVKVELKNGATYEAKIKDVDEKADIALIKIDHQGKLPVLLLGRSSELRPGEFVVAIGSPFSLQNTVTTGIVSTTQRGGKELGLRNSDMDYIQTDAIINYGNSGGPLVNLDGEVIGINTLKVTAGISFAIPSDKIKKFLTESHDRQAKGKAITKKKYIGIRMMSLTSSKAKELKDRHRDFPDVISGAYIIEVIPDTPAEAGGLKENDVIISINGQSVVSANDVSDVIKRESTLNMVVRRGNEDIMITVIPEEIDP
# assay: cell-based or functional assay
A number alone suffices; assume nM.

Q: Requested field: IC50 (nM) for HTRA1 (full), decomposition rate of substrate peptide H2-Opt. Item: peptide derivative H321AT (designed binder) DPQFGLFSKYRTPNCSDFDGMACYAFYEPVCGSDMSTYANECTLCMKIREGGHNIKIIRNGPCGG
Result: 18

Q: Param item: peptide H218 (designed binder) DPQFGLFSKYRTPNCLKSEGMACYAYYEPVCGSDMSTYANECTLCMKIREGGHNIKIIRNGPCGG
Result: 55

Q: Same thing, different binder: peptide M7 (designed binder) DPQFGLFSKYRTPNCSDHAGMACVAFYEPVCGSDMSTYANECTLCMKIREGGHNIKIIRNGPCGG
Result: 24
